Listing: GI50 of selected molecules
Test system: A549 NSCLC
Experiment: NCI tumour cell line growth inhibition, 48 h

[
  {
    "input-smiles": "CCN1CCN(c2nc(C)cc(N(CCCNc3ccnc4cc(Cl)ccc34)Cc3ccco3)n2)CC1",
    "GI50": "4.51 µM"
  }
]

Endpoint output: GI50 of "CSc1ccc(C(=O)/C=C/c2ccc(F)cc2)cc1" . Value?
64.4 µM

Dear colleague, I am looking for the recorded GI50 of the following molecule: "C=C1C(=O)O[C@H]2[C@H]1CC/C(COC(=O)NCc1cccc(OC)c1)=C\CC[C@@]1(C)O[C@@H]21"
3.1 µM

Sample "Cc1cc(S(=O)(=O)Nc2nc3ccsc3c(=O)n2Cc2ccccc2)c(S)cc1Cl" — what was its GI50?
34.5 µM

Would you kindly share the measured GI50 for "C=C(CN(CCN1CCOCC1)CC(=C)c1ccc(C(=O)Nc2ccccc2N)cc1)c1ccc(C(=O)Nc2ccccc2N)cc1" ?
9.38 µM

###

Tested on: K-562 leukemia
Experiment: NCI tumour cell line growth inhibition, 48 h
Assign a class from recorded TGI; defined classes: low-valued = under 30 µM, mid-valued = from 30 µM up to 50 µM, high-valued = 50 µM and over

Before answering, review these 2 worked examples.
[
  {
    "compound": "NC(=O)N/N=C1/CCCC/C1=C\\c1ccccc1",
    "class-label": "high-valued"
  },
  {
    "compound": "O=S(=O)(Nc1nc(-c2cc(O)c(O)c(O)c2)cs1)c1ccc(Cl)cc1Cl",
    "class-label": "mid-valued"
  }
]

Into which bin does this compound go? "COc1ccc(-c2cc3nccn3c(Nc3ncccc3C(N)=O)n2)cc1OC"
high-valued

Could you place "O=C(Nc1ccccc1)OCc1nc2c([nH]1)C(=O)C=CC2=O" in its proper category? Many thanks.
low-valued

Form field 'band' for "O=C(O)CCc1nc(-c2ccccc2)c(-c2ccccc2)o1"
high-valued

###

Tested on: NCI-H226 lung
Experiment: NCI tumour cell line growth inhibition, 48 h
The entries below are paired with their reported TGI.

[
  {
    "molecule": "COC(=O)c1cccc2c1Oc1ccccc1S2",
    "TGI": "> 100 µM"
  },
  {
    "molecule": "O=C(O)c1ccc(/C=N\\N(CCO)C2=NCCN2)cc1",
    "TGI": "> 100 µM"
  },
  {
    "molecule": "CC(C)=CCC[C@@H](C)C1=C(O)C(Nc2ccccc2F)=C(C)C(=O)C1=O",
    "TGI": "> 78.7 µM"
  },
  {
    "molecule": "CS(=O)(=O)OC1CCN(C2(c3cccc(O)c3)CCCCC2)CC1",
    "TGI": "> 100 µM"
  },
  {
    "molecule": "CO[C@H]1/C=C/C[C@H](C)[C@@H](C)S(=O)(=O)NC(=O)c2ccc3c(c2)N(C[C@@H]2CC[C@H]21)C[C@@]1(CCCc2cc(Cl)ccc21)CO3",
    "TGI": "7.4 µM"
  },
  {
    "molecule": "CCN(CC)CCNC(=O)c1cc2cc(NC(=O)c3cc4cc(NC(=O)c5cc6cc([N+](=O)[O-])ccc6[nH]5)ccc4[nH]3)ccc2[nH]1",
    "TGI": "> 100 µM"
  },
  {
    "molecule": "CC1(C)N=C(/C(C#N)=[N+](/[O-])C(=O)c2ccccc2)C(C)(C)N1O",
    "TGI": "> 100 µM"
  },
  {
    "molecule": "COC(=O)C1=C2Nc3ccccc3C23CCN2C(O)C4(CC5CC67CCOC6CCN6CCC8(c9cccc(OC)c9N(C4)C58O)C67)C4OCCC4(C1)C23 (stereo unspecified)",
    "TGI": "> 100 µM"
  }
]

So what does the record say about TGI for c1cc(C2N3CCCN2CC3)ccn1 (stereo unspecified) ?
> 100 µM

Look up TGI for this molecule: CCCCCCCCCCOC1C(C(C)OCCCN(C)C)OC2OC3(CCCCC3)OC21 (stereo unspecified)
38.1 µM

Field request: TGI | item: COC(=O)C1CCC(N2C(=O)CCC2C(=O)OC)=N1 (stereo unspecified)
> 100 µM

Need TGI, item "COc1cc(/C=N/O)nc(-c2ccccn2)c1"
5.93 µM
